System: GRK1;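 further: KINOMEscan kinase panel screen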
recordedConditions: concentration: 1 μM,replicates: in singlicate; n = 1
Please note: y applies when %Inh is 20% or greater, and n applies otherwise.

Some solved entries appear below for comparison.
Cl.Cl.NC[C@H](Cc1ccc(C(F)(F)F)cc1)NC(=O)c1cc(Br)c(-c2ccnc3[nH]ccc23)s1 y
CNC(=O)c1ccccc1Sc1ccc2c(/C=C/c3ccccn3)n[nH]c2c1 y
CN(C)CCOc1ccc(-c2cc(-c3c[nH]nc3-c3ccccn3)ccn2)cc1 n
Cc1occc1-c1nc(N)c(OC[C@@H](N)Cc2c[nH]c3ccccc23)cc1-c1cc2c(C)n[nH]c2cn1 y
C[C@H]1Oc2cc(cnc2N)-c2c(nn(C)c2C#N)CN(C)C(=O)c2ccc(F)cc21 y

Entry `Cc1ccc(-n2nc(C(C)(C)C)cc2NC(=O)Nc2ccc(OCCN3CCOCC3)c3ccccc23)cc1` : is its %Inh no less than 20%?
n
